# assay: yeast display, Sf9 membrane polyspecificity reagent, FACS + sequencing; frameworks hold sequencing errors
measure: polyreactivity (PSR sort gate)

Please review the following examples before continuing.
{"seq.text": "QVQLVESGGGLVQAGGSLRLSCAASGRTFQENGMGWYRQAPGKERELVATISQRGTSTYYADSVKGRFTISRDNAKNTVYLQMNSLKPEDTAVEYCARRRVYRWYTGDYWGQGTQVTVSS", "result": "low polyreactivity"}
{"seq.text": "QVQLVESGGGLVQAGGSLRLSCAASGSIFSTYAMGWYRQAPGKERELVAAISTRGGRTYYADSVKGRFTISRDNAKNTVYLQMNSLKPEDTAVYYCAAKRGKTYQRFDYWGQGTQVTVSS", "result": "high polyreactivity"}
{"seq.text": "QVQLVESGGGLVQAGGSLRLSCAASGSTFLGNAMGWYRQAPGKERELVATITGSSGSTYYADSVKGRFTISRDNAKNTVYLQMNSLKPEDTAVYYCNTVYNYWDGYDYWGQGSQVTVSS", "result": "low polyreactivity"}
{"seq.text": "QVQLVESAGGLVQAGGSLRLSCAASASIFYVYSMGWSRQAPGKEREFVAAISWRGGSTYYADSVKGRFTISRDNAKNTVYLQMISLKPEDTAVFYCNGRRLGYRSGHPGYYWGQGTQVTVSS", "result": "high polyreactivity"}
{"seq.text": "QVQLVESGGGLVQAGGSLRLSCAASGLTFGVYAMGWYRPAPGKERELVAAITATGGSTYYADSVKGRFTISRDNAKNTVYLQMNSLKPEDTAVYYCAKPDFYRMGYWGQGTQVTVSS", "result": "low polyreactivity"}
{"seq.text": "QVQLVESGGGLVQAGGSLRLSCAASGSTIFENVMGWYREAPRKEREFVAAINTSGRSTYYADSVKGRFTISRDNAKNTVFLQMNSLKPEDTAVDYCARDSYWEMDYWGQGTQVTVSS", "result": "low polyreactivity"}

Data request: What does the record list as polyreactivity (PSR sort gate) for QVQLVESGGGLVQAGGSLRLSSAASGFTFPWYAMGWYSQAPGKEREVVAVISSSGGSTYYADSVKGRFTISRDNAKNTVYLQMNSLKPEDTAVYYCARAYGGRGYDIRYDYWGKGTQVTVSS ?
Data returned: high polyreactivity

Data request: What does the record list as polyreactivity (PSR sort gate) for QVQLVESGGGLVQAGGSLRLSCAASGFTFAANTMGWYRQAPGKERELVADISGRGDRTSYADSVKGRFTISRDNAKNTVYLQMNSLKPEDTAVYYCAVDIYYYSNVHYYYWGQGTQVTVSS ?
Data returned: low polyreactivity

Data request: What does the record list as polyreactivity (PSR sort gate) for QVQLVESGGGLVQAGGSLRLSCAASGSIFWGYAMGWYRQAPGKERELVATISWTGGSTYYADSVKGRFTISRDNAKNTVYLQMNSLKPEDTAVYYGAKVIIHYYYVVNLVDVDYWGQGTQVTVSS ?
Data returned: low polyreactivity

Data request: What does the record list as polyreactivity (PSR sort gate) for QVQLVESGGGLVQAGGSLRLSCAASGFIFRSYDMGWYRQAPGKERELVARISSGGSTYYADSVKGRFTISRDNAKNTVYLQMNSLKPEDTAVYYCNSARPTAAYDYWGQGTQVTVSS ?
Data returned: low polyreactivity

Data request: What does the record list as polyreactivity (PSR sort gate) for QVQLVESGGGLVQAGGSLRLSCAASGFTFVYYNMGWYRQAPGKERELVAAITQSGGRTYYADSVKGRFTISRDNAKNTVYLQMNCLKPEDTAVYYCAARLWGKRDYRMDYWGQGSQVTVSS ?
Data returned: high polyreactivity

---

# assay: yeast display, Sf9 membrane polyspecificity reagent, FACS + sequencing; frameworks hold sequencing errors
measure: polyreactivity (PSR sort gate)

Please review the following examples before continuing.
{"seq.text": "QVQLVESGGGLVQAGGSLRLICAASGSTFKGYAMGWYIQSPGKERELVAAISWPGGRTSYADSVKGRFTISRDNAKNTVYLQMNSLKPEDTAVYYCNKAWWVQKGYFFYYWEQGTQVTVSS", "result": "high polyreactivity"}
{"seq.text": "QVQLVESGGGLVQAGGSLRLSCAASGRIFSYYTMGWYRQAPGKERELVAAITSGDSTNYADSVKGRFTISRDNAKNTVYLQMNSLKPEDNAVYYCNARYSWWRSRVGSSHRPDGYWGQGTQVTVSS", "result": "high polyreactivity"}
{"seq.text": "QVQLVESGGGLVQAGGSLRLSCAASGRTSQEYAMGWYRQAPGKERELVAGITRRGGTTYYADSVKGRFTISRDNAKNTVYLQMNRLNPEDTAVYYCAKRYTHSFKYEYWGQCTQVTVSS", "result": "high polyreactivity"}
{"seq.text": "QVQLEESGGGLVQAGGSLRLSCAASGSTFSDNAKAWYRQATGKVRELVADITWSGGSTHYADSVKGRFTFSRDNAKNTVYLQMTSLKPEDTSVYYCARDNYKEGDYWGQGTKVTVSS", "result": "low polyreactivity"}
{"seq.text": "QVQLVESGGGLVQAGGSLRLSCAASGLTFYYYDMGWYRQAPGKERELVAAITTDGSTNYADSVKGRFTISRDNAKNTVYLQMNSLKPEDTAVYYCAADKYYRYNYWGQGTQVTVSS", "result": "high polyreactivity"}
{"seq.text": "QVQLVDSGGGLVQAGGSLRLSCAASGRTFYGNAMGWYRQAPGKARELVAAINRDGGTYYADSVKGRFTISRDNAKNTVYLQMNSLKPEDTAVYYCNAVKRGIRYGYWGQGTQVTVSS", "result": "high polyreactivity"}

Data request: What does the record list as polyreactivity (PSR sort gate) for QVQLVESGGGLVQAGGSLRLSCAASGSIFGWNAMGWYRQAPGKERELVAAINWTGGTTYYADSVKGRFTISRDNEKNTVYLQMNSLKPEDTAVYYCAARLTYHVAGQMTRYYYWGQGTQVTVSS ?
Data returned: low polyreactivity

Data request: What does the record list as polyreactivity (PSR sort gate) for QVQLVESGGGLVQARGSLRLSCASSGRIFWRYAMRWYSQSPGKERELVAAISRSGGRTYYADSVKGRFTISRDNAKNTVYLQMISLKPEDTAVYYCAAKTGGQPGDYWGQGTQVTVSS ?
Data returned: high polyreactivity

Data request: What does the record list as polyreactivity (PSR sort gate) for QVQLVESGGGLVQAGGSLRLSCPASGRIFQLYAMGWYRQAPGKERELVAAIRYSGDSTYYADSVKGRLTISRDNAKNTVYLQLNSLKPEDTAVYYCAARSRYGYRNKYEYWGQGTQVTVSS ?
Data returned: high polyreactivity

Data request: What does the record list as polyreactivity (PSR sort gate) for QVQLVESGGGLVQAGGSLRLSCAASGLTLTPYVMGWYRQAPGKEREFVAAITYTGGRTYYADSVKGRFTISRDNAKNTVYLKMNSLKPEDTAVYDCNKGYYQTWPRYYSWGQGTQVTVSS ?
Data returned: high polyreactivity

Data request: What does the record list as polyreactivity (PSR sort gate) for QVQLVESVGGLVQAGGSLRLSCAASGSIFSSYAMGWYRQAPGKERELVAAITSGGSTYYADSVKGRFTISRDNAKNTVYLQMNSLKPVDPAVYYCAAREVLTSKLHMGYWGTGTQVTVSS ?
Data returned: low polyreactivity

---

# assay: yeast display, Sf9 membrane polyspecificity reagent, FACS + sequencing; frameworks hold sequencing errors
measure: polyreactivity (PSR sort gate)

{"seq.text": "QFQLVESCGGLVPAGGSLRLSCAASGRILSDYAMGWYRQAPGKERELVAVISWDGTNTYYADSVKGRFPISRDNAKNTVYLQMNSLKPEDTAVYYCAATGTSYYSAYDYWGQGTQVTVSS", "result": "low polyreactivity"}
{"seq.text": "QVQLVESGGGLVQAGGSLRLSCAASGSTLGGYAMGWYRQAPGKERELVAAIRWGGNTYYADSVKGRFTISRDNAKNTVYLQMNSLKPEDTAVYYCAADRWYYFLMYYWGQGTQVTVSS", "result": "low polyreactivity"}
{"seq.text": "QVQLVESGGGLVQAGGSLRLSCSASGITFGTYAMGWYRQAPGKERELVASITYGGTNTYYADSVKGRFTISRDNAKNTVCLQMNSLKPEDTAVYYCNADPAVSRGSIATDDYDYWVQGTQVTVSS", "result": "low polyreactivity"}
{"seq.text": "QVQLVESGGGLVQAGGSIRLSCAASGRIFKGYAMGSYRQAPGKERELVAAISSRGGITYYADSVKGRFTISRDNAKNSVYLEMNSLNPEDTAVYYCAAVYKWSRYGGYKYWGQGTQVTVSS", "result": "low polyreactivity"}

---

# assay: yeast display, Sf9 membrane polyspecificity reagent, FACS + sequencing; frameworks hold sequencing errors
measure: polyreactivity (PSR sort gate)

Please review the following examples before continuing.
{"seq.text": "QVQLVESGGGLVQAGGSLRLSCAASGSIFVSYAMGWYRQAPGKERELVAVISYSGVSTYYADSVKGRFTISRDNAKNTVYLQMYSLKPEDTAVYYCATRQYGTRHILKYNYWGQGTQVTVSS", "result": "low polyreactivity"}
{"seq.text": "QVQLVESGGGLVQAGGSLRLSCAASGRIFRYYAMGWYRQAPGKERELVASISSGGSTNYADSVKGRFTISRDNAKNTVYLQMNSLKPEDTAVYYCATVRRSTGGRLYYWGQGTQVTVSS", "result": "high polyreactivity"}
{"seq.text": "QVQLVESGGALVQAGGSLRLSCAASGSTFVTYAMGWYRQAPGKEREFVAAISWRGGRTYYADSVKGRFSISRDNAKNTVYLQMNSLKPEDTAVYYCAVRTLQRGKHDLGVDYWGQGTQVTVSS", "result": "high polyreactivity"}
{"seq.text": "QVQLVESGGGLVQAGGSLRLSCPASGSIFWPNAMGWYRQAPGKERELVASINSGSGSTYYADSVKGRFTISRDNAKNTVYLQMNSLKPEDTAVYYCNAAGAYPYYSEDYYWGQGTQVTVSS", "result": "low polyreactivity"}

# ---- query sequence ----
Data request: What does the record list as polyreactivity (PSR sort gate) for QVQLVESGGGLVQAGGSLRLSCAASGRIFITNAMGWYRQAPGKERELVAVISYIGGRTYYADSVKGRFTISRDNAKNTVYLQMNSLKPEATAVYYCAARRSRPTYYSTGVNYWGQGTQVTVSS ?
Data returned: high polyreactivity
